- Tested on: A549
- measurement_protocol: Cytotoxicity against human A549 cells assessed as inhibition of cell proliferation measured after 68 hrs by MTT assay
- Format: functional, cell-based
- cond: A549, 68 h
pIC50: −log10 of the molar value.
parameter_measured: pIC50

1) C/C=C(\C)[C@@H](O)[C@@H](C)/C=C(C)/C=C/C[C@H](C)/C=C/c1oc(OC)c(C)c(=O)c1C | < 4.30
2) C/C=C(\C)[C@@H](O)[C@@H](C)/C=C(C)/C=C/C[C@H](C)/C=C/C(=O)CC | < 4.30

Okay, now this compound:
Give reported pIC50 value for `C/C=C(\C)[C@@H](O)[C@@H](C)/C=C(C)/C=C/C[C@H](C)/C=C/c1oc(=O)c(C)c(O)c1C`
< 4.30

* * *

In this section we review reported IC50 values for a set of molecules.
- System: MDA-MB-231
- measurement_protocol: Cytotoxicity against human MDA-MB-231 cells assessed as inhibition of cell proliferation measured after 68 hrs by MTT assay
- Format: functional, cell-based
- cond: MDA-MB-231, 68 h

1. C/C=C(\C)[C@@H](O)[C@@H](C)/C=C(C)/C=C/C[C@H](C)/C=C/c1oc(OC)c(C)c(=O)c1C | > 50 µM
2. C/C=C(\C)[C@@H](O)[C@@H](C)/C=C(C)/C=C/C[C@H](C)/C=C/C(=O)CC | > 50 µM

Give reported IC50 value for `C/C=C(\C)[C@@H](O)[C@@H](C)/C=C(C)/C=C/C[C@H](C)/C=C/c1oc(=O)c(C)c(O)c1C`
> 50 µM
